# Assay Method Text: chemical genetic growth profiling, strain panel (AID 1159580);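 further: tested at 20 µM; growth read once vehicle control cultures reached saturation at 30 °C; 1 = growth at the plate median or of vehicle wells; lower values mean less growth of the strain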
# Condition Parameters: S. cerevisiae deletion strains, growth OD, locus YOR083W, strain WHI5 (second series), stronger effect = lower value
The campaign covered roughly 5,500 compounds. About 2,000 (36%) were called active. Another 18% or so got no clear call; they are omitted. The list shows a part of the results.
Attribute Measured: normalized growth

| Compound | Value |
| --- | --- |
| Cc1cccc(C)c1OCC(C)N (stereo unspecified) | 1 |
| CCCN(CCC)CCc1ccc(O)c(O)c1 | 1.01 |
| CC(C(=O)O)c1cccc(C(=O)c2ccccc2)c1 (stereo unspecified) | 1.02 |
| CC(C)C[C@H](NC(=O)[C@@H](O)[C@H](N)Cc1ccccc1)C(=O)O | 0.989 |
| CN1CCC(=C2c3ccccc3CC(=O)c3sccc32)CC1 | 1.01 |
| CC(=O)NCCc1ccc(O)c(O)c1 | 1.02 |
| COc1ccc(CCNC[C@@H](O)c2ccc(O)cc2)cc1OC | 0.986 |
| CC(C)C[C@H](NC(=O)[C@H](O)[C@H](N)Cc1ccccc1)C(=O)O | 1.03 |
| CCC(NC(C)C)C(O)c1ccc(O)c(O)c1 (stereo unspecified) | 1.03 |
| CNC(=O)OCC[N+](C)(C)C | 0.985 |
| CCOC(=O)c1cnc2c(cnn2CC)c1NN=C(C)C | 0.844 |
| O=C(O)c1nn(Cc2ccc(Cl)cc2Cl)c2ccccc12 | 0.994 |
| CCN(CC)CCCC(C)Nc1ccnc2cc(Cl)ccc12 (stereo unspecified) | 0.986 |
| c1ccc2sc(C3(N4CCCCC4)CCCCC3)cc2c1 | 1.04 |
| C[N+](C)(C)CCOC(N)=O | 1.01 |
| CC(=O)OCC1=C(C(=O)O)N2C(=O)C(NC(=O)CSc3ccncc3)C2SC1 (stereo unspecified) | 1.02 |
| CP(=O)(O)C1=CCNCC1 | 0.987 |
| COc1ccc(OC)c(C(O)C(C)N)c1 (stereo unspecified) | 1.01 |
| CCCCNc1cc(C(=O)O)cc(S(N)(=O)=O)c1Oc1ccccc1 | 1.03 |
| O=C(O)C1=CCCN(CCON=C(c2ccccc2)c2ccccc2)C1 | 0.987 |
| CNc1cc(NS(=O)(=O)c2ccc(N)cc2)nc(NC)n1 | 0.993 |
| C[C@]12C[C@H](O)[C@H]3[C@@H](CCC4=CC(=O)CC[C@@]43C)[C@@H]1CC[C@@H]2C(=O)CO | 1.02 |
| COc1ccc2cc([C@H](C)C(=O)O)ccc2c1 | 0.972 |
| CCN(CC)CCCC(C)Nc1c2ccc(Cl)cc2nc2ccc(OC)cc12 (stereo unspecified) | 0.955 |
| C[N+](C)(C)CCOC(=O)CCC(=O)OCC[N+](C)(C)C | 1.02 |
| CNCCc1ccc(O)c(O)c1 | 0.976 |

====

# Assay Method Text: chemical genetic growth profiling, strain panel (AID 1159580);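 further: tested at 20 µM; growth read once vehicle control cultures reached saturation at 30 °C; 1 = growth at the plate median or of vehicle wells; lower values mean less growth of the strain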
# Condition Parameters: S. cerevisiae deletion strains, growth OD, locus YNL175C, strain NOP13
The whole screen tested about 5,500 compounds, of which about 2,000 (36%) were called active. Not shown: some 18% with an inconclusive outcome. Cut-off read from the data, not from the text of the source: active = normalized growth mostly below about 0.91 (no sharp cut-off); inconclusive = no clear call, values can overlap the other calls; inactive = mostly above about 0.92. The list shows a part of the results.
Possible outcomes: true (active), false (inactive)

| Compound | Assigned Category |
| --- | --- |
| CCOC(=O)c1cnc2c(cnn2CC)c1NN=C(C)C | false |
| CC(C)(O)C1C2OC(=O)C1C1(O)CC3OC34C(=O)OC2C14C (stereo unspecified) (tested in a mixture with another compound) | true |
| CC(C)C[C@H](NC(=O)[C@@H](O)[C@H](N)Cc1ccccc1)C(=O)O | false |
| CCOC(=O)C12CC1/C(=N\O)c1ccccc1O2 (stereo unspecified) | false |
| NC1CCN(O)C1=O (stereo unspecified) | false |
| CC(=O)OCC1=C(C(=O)O)N2C(=O)C(NC(=O)CSc3ccncc3)C2SC1 (stereo unspecified) | false |
| Nc1nc2ccc(OC(F)(F)F)cc2s1 | false |
| CC(=O)[C@H]1CC[C@H]2[C@@H]3CCC4=CC(=O)CC[C@]4(C)[C@H]3CC[C@]12C | false |
| C[C@]12C[C@H](O)[C@H]3[C@@H](CCC4=CC(=O)CC[C@@]43C)[C@@H]1CC[C@@H]2C(=O)CO | false |
| CCCCNc1c(C(=O)OCC)c(C)nc2c1cnn2CC | false |
| C/C=C1\C(=O)CC2C3CCC4=CC(=O)CC[C@]4(C)C3CC[C@]12C (stereo partly specified) | false |
